// data source = patent US5407932A

# Test system: P. aeruginosa (IFO 3445)
# assayMethodText: Minimum inhibitory concentration, standard method of the Japan Society of Chemotherapy
# Assay type: cell-based
# runConditions: Pseudomonas aeruginosa, IFO3445
valueType: MIC
Please answer using the number first and the unit second.

Examples with answers:
CN1CCN(c2c(F)c(N)c3c(=O)c(C(=O)O)cn(C4COC4)c3c2F)CC1 = 0.78 µg/mL
Nc1c(F)c(N2CCCC2)c(F)c2c1c(=O)c(C(=O)O)cn2C1COC1 = 3.13 µg/mL
CCNC1CCN(c2c(F)cc3c(=O)c(C(=O)O)cn(C4COC4)c3c2OC)C1 (centres unmarked) = 12.5 µg/mL
Nc1c(F)c(N2Cc3ccccc3C2)c(F)c2c1c(=O)c(C(=O)O)cn2C1COC1 = 3.13 µg/mL
Nc1c(F)c(N2CC(N)C2)c(F)c2c1c(=O)c(C(=O)O)cn2C1COC1 = 3.13 µg/mL
CO[C@@H]1CN(c2c(F)c(N)c3c(=O)c(C(=O)O)cn(C4COC4)c3c2F)C[C@H]1N (relative stereo) = 3.13 µg/mL
CN(C)CC1CCN(c2cc3c(cc2F)c(=O)c(C(=O)O)cn3C2COC2)C1 (centres unmarked) = 6.25 µg/mL

Field: next molecule
Q) Please supply the value of reported MIC for the item CO[C@H]1CN(c2c(F)cc3c(=O)c(C(=O)O)cn(C4COC4)c3c2F)C[C@H]1N (relative stereo)
A) 3.13 µg/mL

----------
# Test system: E. coli NIH JC-2 (IFO 12734)
valueType: MIC (µg/mL)
Please give a number only; it is taken to be in µg/mL.

Examples with answers:
NCC1CN(c2c(F)cc3c(=O)c(C(=O)O)cn(C4COC4)c3c2F)CCO1 (stereo not shown) [Compound 22] = 6.25
NC1CN(c2cc3c(cc2F)c(=O)c(C(=O)O)cn3C2COC2)C1 [Compound 41] = 0.78
CCNC1CCN(c2nc3c(cc2F)c(=O)c(C(=O)O)cn3C2COC2)C1 (stereo not shown) [Compound 69] = 0.39
CN1CCN(c2c(F)c(N)c3c(=O)c(C(=O)O)cn(C4COC4)c3c2F)CC1 [Compound 29] = 0.1
Nc1c(F)c(N2CCCC2)c(F)c2c1c(=O)c(C(=O)O)cn2C1COC1 [Compound 27] = 0.39
CNCC1CCN(c2c(F)c(N)c3c(=O)c(C(=O)O)cn(C4COC4)c3c2F)C1 (stereo not shown) [Compound 52] = 0.78
Nc1c(F)c(N2CC(N)C2)c(F)c2c1c(=O)c(C(=O)O)cn2C1COC1 [Compound 49] = 0.78
COc1c(N2CCNCC2)c(F)cc2c(=O)c(C(=O)O)cn(C3COC3)c12 [Compound 81] = 0.78
CN[C@@H]1CN(c2c(F)cc3c(=O)c(C(=O)O)cn(C4COC4)c3c2F)C[C@@H]1C (relative stereo) [Compound 93] = 0.78
CO[C@@H]1CN(c2c(F)c(N)c3c(=O)c(C(=O)O)cn(C4COC4)c3c2F)C[C@H]1N (relative stereo) [Compound 86] = 0.39

Q) Return reported MIC for target or system E. coli NIH JC-2 (IFO 12734), item CCNCC1CCN(c2c(F)cc3c(=O)c(C(=O)O)cn(C4COC4)c3c2F)C1 (stereo not shown) [Compound 47] .
A) 0.78

Q) Return reported MIC for target or system E. coli NIH JC-2 (IFO 12734), item Nc1c(F)c(N2CCC(N)C2)c(F)c2c1c(=O)c(C(=O)O)cn2C1COC1 (stereo not shown) [Compound 31] .
A) 0.2

Q) Return reported MIC for target or system E. coli NIH JC-2 (IFO 12734), item CNC1CCN(c2c(F)c(N)c3c(=O)c(C(=O)O)cn(C4COC4)c3c2F)C1 (stereo not shown) [Compound 50] .
A) 0.39

Q) Return reported MIC for target or system E. coli NIH JC-2 (IFO 12734), item NCC1CCN(c2c(F)cc3c(=O)c(C(=O)O)cn(C4COC4)c3c2F)C1 (stereo not shown) [Compound 20] .
A) 1.56

Q) Return reported MIC for target or system E. coli NIH JC-2 (IFO 12734), item NCC1CCN(c2cc3c(cc2F)c(=O)c(C(=O)O)cn3C2COC2)C1 (stereo not shown) [Compound 38] .
A) 3.13

Q) Return reported MIC for target or system E. coli NIH JC-2 (IFO 12734), item Nc1c(F)c(N2CCC(O)C2)c(F)c2c1c(=O)c(C(=O)O)cn2C1COC1 (stereo not shown) [Compound 59] .
A) 0.39

----------
# System: E. coli NIH JC-2 (IFO 12734)
valueType: MIC (µg/mL)
Please give a number only; it is taken to be in µg/mL.

Q) Please supply the value of reported MIC for the item O=C(O)c1cn(C2COC2)c2c(F)c(N3CCC(O)C3)c(F)cc2c1=O (stereo not shown) [Compound 16]
A) 0.39

Q) Please supply the value of reported MIC for the item CN[C@@H]1CN(c2c(F)c(N)c3c(=O)c(C(=O)O)cn(C4COC4)c3c2F)C[C@H]1C (relative stereo) [Compound 92]
A) 0.1

Q) Please supply the value of reported MIC for the item CO[C@@H]1CN(c2nc3c(cc2F)c(=O)c(C(=O)O)cn3C2COC2)C[C@H]1N (relative stereo) [Compound 88]
A) 0.78

Q) Please supply the value of reported MIC for the item Nc1c(F)c(N2CCSCC2)c(F)c2c1c(=O)c(C(=O)O)cn2C1COC1 [Compound 28]
A) 0.78

Q) Please supply the value of reported MIC for the item CCNC1CCN(c2c(F)cc3c(=O)c(C(=O)O)cn(C4COC4)c3c2F)C1 (stereo not shown) [Compound 45]
A) 0.39

Q) Please supply the value of reported MIC for the item CN(C)C1CCN(c2nc3c(cc2F)c(=O)c(C(=O)O)cn3C2COC2)C1 (stereo not shown) [Compound 66]
A) 0.39

----------
# Tested on: P. aeruginosa (IFO 3445)
# assayMethodText: Minimum inhibitory concentration, standard method of the Japan Society of Chemotherapy
# Format: cell-based
# runConditions: Pseudomonas aeruginosa, IFO3445
valueType: MIC (µg/mL)
Please give a number only; it is taken to be in µg/mL.

O=C(O)c1cn(C2COC2)c2c(F)c(N3CCNCC3)c(F)cc2c1=O = 1.56
CNCC1CCN(c2c(F)cc3c(=O)c(C(=O)O)cn(C4COC4)c3c2F)C1 (centres unmarked) = 3.13

Q) Please supply the value of reported MIC for the item NC1CCN(c2nc3c(cc2F)c(=O)c(C(=O)O)cn3C2COC2)C1 (centres unmarked)
A) 0.39

Q) Please supply the value of reported MIC for the item CNC1CCN(c2c(F)cc3c(=O)c(C(=O)O)cn(C4COC4)c3c2F)C1 (centres unmarked)
A) 1.56

Q) Please supply the value of reported MIC for the item O=C(O)c1cn(C2COC2)c2c(F)c(N3CC=CC3)c(F)cc2c1=O
A) 6.25

----------
# Tested on: E. coli NIH JC-2 (IFO 12734)
Mark True only when MIC stays strictly below 0.4 µg/mL. Values equal to the cut-off are False.

Worked examples follow.
O=C(O)c1cn(C2COC2)c2c(F)c(N3CCC(O)CC3)c(F)cc2c1=O = False
O=C(O)c1cn(C2COC2)c2c(F)c(N3CCOCC3)c(F)cc2c1=O = False
O=C(O)c1cn(C2COC2)c2cc(N3CCC(O)C3)c(F)cc2c1=O (centres unmarked) = False

Q) Is MIC of CN[C@@H]1CN(c2c(F)c(N)c3c(=O)c(C(=O)O)cn(C4COC4)c3c2F)C[C@@H]1C (relative stereo) strictly below 0.4 µg/mL?
A) True

Q) Is MIC of Nc1c(F)c(N2CCN(O)CC2)c(F)c2c1c(=O)c(C(=O)O)cn2C1COC1 strictly below 0.4 µg/mL?
A) False

Q) Is MIC of CCNCC1CCN(c2c(F)c(N)c3c(=O)c(C(=O)O)cn(C4COC4)c3c2F)C1 (centres unmarked) strictly below 0.4 µg/mL?
A) True

Q) Is MIC of CN(C)C1CCN(c2c(F)cc3c(=O)c(C(=O)O)cn(C4COC4)c3c2F)C1 (centres unmarked) strictly below 0.4 µg/mL?
A) True

Q) Is MIC of CO[C@H]1CN(c2c(F)cc3c(=O)c(C(=O)O)cn(C4COC4)c3c2F)C[C@H]1N (relative stereo) strictly below 0.4 µg/mL?
A) False

Q) Is MIC of Cl.N=CN1CCN(c2c(F)c(N)c3c(=O)c(C(=O)O)cn(C4COC4)c3c2F)CC1 strictly below 0.4 µg/mL?
A) False

----------
# Test system: P. aeruginosa (IFO 3445)
# assayMethodText: Minimum inhibitory concentration, standard method of the Japan Society of Chemotherapy
# Format: cell-based
# runConditions: Pseudomonas aeruginosa, IFO3445
valueType: MIC (µg/mL)
Please give a number only; it is taken to be in µg/mL.

O=C(O)c1cn(C2COC2)c2c(F)c(N3CC(O)C3)c(F)cc2c1=O [Compound 17] = 6.25
CN[C@@H]1CN(c2c(F)c(N)c3c(=O)c(C(=O)O)cn(C4COC4)c3c2F)C[C@H]1C (relative stereo) [Compound 92] = 1.56
NCC1CCN(c2cc3c(cc2F)c(=O)c(C(=O)O)cn3C2COC2)C1 (centres unmarked) [Compound 38] = 12.5
O=C(O)c1cn(C2COC2)c2cc(N3CCNCC3)c(F)cc2c1=O [Compound 36] = 3.13

Field: next compound
Q) Please supply the value of reported MIC for the item CN1CCN(c2c(F)cc3c(=O)c(C(=O)O)cn(C4COC4)c3c2F)CC1 [Compound 11]
A) 1.56
